tested on: NCI-H23 lung; experiment: NCI-60 one-dose screen, 48 h; settings: 10 µM
The panel holds about 83,000 compounds, 20% with a hit somewhere; the sample as a whole holds those more often. The source made the active and inactive calls. The calls were made as follows: active = growth percent below 10; inactive = the rest.
Result category, one only: yes (1) (active), no (0) (inactive)

Study these solved cases before continuing.
[[record]]
compound = "COc1ccc(/C(C#N)=C2C=C/C(=N/O)c3ccccc3\\2)cc1"
tested_system = "NCI-H23 lung"
class_label = "no (0)"

[[record]]
compound = "c1cc2cccc3c4cccc5cccc(c(c1)c23)c54"
tested_system = "NCI-H23 lung"
class_label = "no (0)"

[[record]]
compound = "COc1ccccc1NC(=O)c1cc2cc(Br)ccc2cc1O"
tested_system = "NCI-H23 lung"
class_label = "yes (1)"

[[record]]
compound = "COc1cccc(O)c1O"
tested_system = "NCI-H23 lung"
class_label = "no (0)"


Record lookup: outcome of this test for Cc1cccc(CO)c1 ?
no (0)

Just curious, what result did CC(=O)OC1CC2C(C)(C)OC3CC(=O)OCC32C2CCC3(C)C(=CCC3c3ccoc3)C12C (configuration not stated) get here?
no (0)

What was the test verdict on CC(=O)NCc1cc(C)c(C)cc1C ?
no (0)

Returns: the outcome recorded for CC(C)=C(NC(=O)c1ccccc1)C(=O)O in this assay.
no (0)

Could you please tell me the result logged for O=C1OC[C@H]2[C@H](c3ccc(O)c(O)c3)c3cc(O)c(O)cc3C[C@H]12 in this assay?
no (0)

Outcome? O=C(O)c1ccnc(Br)c1
no (0)

Recorded call for CC(C)C1CCCCC1O (configuration not stated) ?
no (0)

Write down the call the test reported for this compound. Item: COc1ccccc1C1OC2=Nc3cc(C)c(C)cc3NC2C1=O (configuration not stated)
no (0)

Dear colleague, could you share the recorded outcome for Cc1nc2ccccc2c(C(=O)O)c1O when you have a moment?
no (0)

What outcome does the record of this test show for CN(C)c1ccc(C(c2ccc(O)cc2)c2ccc(N(C)C)cc2)cc1 ?
no (0)

# outcome recorded in this test, key = CC(=O)Oc1ccc(Br)cc1C(=O)O
no (0)

What did the test return for CC(=O)c1ccc(C(C)(C)C)cc1 ?
no (0)

Hi team, can someone confirm the assay call for CCOC(=O)C/C(C)=N\O ?
no (0)

Any idea what this test logged for O=C(/C=C\c1ccc(O)cc1)c1ccccc1 ?
no (0)

Could you please tell me the result logged for O=C1NC(=O)C2C(=O)NC(=O)C1C21CCc2ccccc21 (configuration not stated) in this assay?
no (0)

Write down the call the test reported for this compound. Item: CCN1C(=O)/C(=C/C=C/N(C)c2ccccc2)SC1=S
no (0)

Fill in: this test's call for CC(C)NC(=O)OCc1c(COC(=O)NC(C)C)c(-c2ccc(Cl)c(Cl)c2)n2c1SCC2 is ___
no (0)

What outcome does the record of this test show for CC(=O)OCCO ?
no (0)

Could you kindly confirm the outcome this assay logged for NCCCN ?
no (0)

How was S=c1nn[nH]c2ccccc12 classified in this test?
no (0)

What did this assay record as the result for CCCCOC(OCCCC)c1ccccc1 ?
no (0)

Returns: the outcome recorded for CCOC(=O)/C(=C/c1ccc(OC)cc1)N(CC)CC in this assay.
no (0)

Please let me know the test result on file for Nc1nc2c(c(-c3nc(N)nc4c3CCc3ccccc3-4)n1)CCc1ccccc1-2 .
no (0)
